Experimental system: S1PR1 (Homo sapiens, UniProt P21453)
Construct: host or cells: CHO-K1 co-expressing Ga15
Sequence (P21453 whole entry): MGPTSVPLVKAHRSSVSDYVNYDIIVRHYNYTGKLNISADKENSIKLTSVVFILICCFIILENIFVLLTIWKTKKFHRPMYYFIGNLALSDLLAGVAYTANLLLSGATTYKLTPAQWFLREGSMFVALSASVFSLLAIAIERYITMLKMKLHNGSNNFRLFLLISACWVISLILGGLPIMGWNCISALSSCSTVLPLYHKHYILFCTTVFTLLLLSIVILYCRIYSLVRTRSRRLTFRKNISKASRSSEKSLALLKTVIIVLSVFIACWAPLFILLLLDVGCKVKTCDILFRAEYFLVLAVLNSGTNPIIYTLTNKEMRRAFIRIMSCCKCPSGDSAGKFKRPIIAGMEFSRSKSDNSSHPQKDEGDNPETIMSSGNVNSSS
Protocol text: Agonistic activity test on S1P receptors, FLIPR, CHO-K1/Ga15/EDG1 cells
Format: cell-based
Experimental parameters: CHO-K1/Ga15/EDG1 cells, FLIPR agonist mode; read-out: S1PR1 EC50
The following compounds are listed with their measured pEC50 values.
Please treat pEC50 as minus the base-10 logarithm of the molar concentration.

1. N#Cc1cccc(-c2nc(-c3ccc(CN4CC(C(=O)O)C4)c4ccccc34)no2)c1 [Compound A24] : 6.16
2. O=C(O)C1CN(Cc2ccc(-c3noc(-c4cccc(F)c4)n3)c3ccccc23)C1 [Compound A25] : 5.98
3. CC(C)Oc1ccc(-c2nc(-c3ccc(CN4CC(C(=O)O)C4)c4ccccc34)no2)cc1Cl [Compound A10] : 6.16

Moving on to the next compound.
Task: Which pEC50 value belongs to COc1ccc(-c2nc(-c3ccc(CN4CC(C(=O)O)C4)c4ccccc34)no2)cc1 [Compound A16] ?
Result: 5.93

---

Protocol text: Preliminary assessment of pharmacokinetics in mice
Assay type: in vivo, CD-1 mice
Experimental parameters: male, CD-1, mouse, plasma, ip, 20 mg/kg, intraperitoneal injection 20 mg/kg; 0.25 h; individual animals 4-6; read-out: Concentration of A1 Drug in Plasma of Mice
Value kind: concentration at 0.25 h (ng/mL)
Please reply with the bare figure in ng/mL and do not write the unit itself.

Task: Which concentration at 0.25 h value belongs to CC(C)Oc1ccc(-c2nc(-c3ccc(CN4CC(C(=O)O)C4)c4ccccc34)no2)cc1C#N.Cl ?
Result: 1170

---

Protocol text: Preliminary assessment of in vivo pharmacokinetics in rats
Experimental parameters: rat, plasma, iv, 2 mg/kg, intravenous 2 mg/kg; 2 h; individual animals 1-3; read-out: Plasma drug concentrations in rats
Value kind: concentration at 2 h (ng/mL)
Please reply with the bare figure in ng/mL and do not write the unit itself.

Task: Which concentration at 2 h value belongs to CC(C)Oc1ccc(-c2nc(-c3ccc(CN4CC(C(=O)O)C4)c4ccccc34)no2)cc1C#N.Cl ?
Result: 419

---

Protocol text: Preliminary evaluation of pharmacokinetics in Beagle dogs
Type: in vivo
Experimental parameters: beagle, dog, plasma, oral, 3 mg/kg, intragastric 3 mg/kg; 4 h; mean; read-out: Plasma drug concentration in Beagle dogs
Value kind: concentration at 4 h (ng/mL)
Please reply with the bare figure in ng/mL and do not write the unit itself.

Task: Which concentration at 4 h value belongs to CC(C)Oc1ccc(-c2nc(-c3ccc(CN4CC(C(=O)O)C4)c4ccccc34)no2)cc1C#N.Cl ?
Result: 111

---

Protocol text: Preliminary assessment of pharmacokinetics in mice
Format: in vivo, CD-1 mice
Experimental parameters: male, CD-1, mouse, plasma, intraperitoneal, 20 mg/kg, title: intraperitoneal 20 mg/kg; 0.50 h; mean; read-out: Concentration of A1 Drug in Plasma of Mice
Value kind: concentration at 0.5 h

Task: Which concentration at 0.5 h value belongs to CC(C)Oc1ccc(-c2nc(-c3ccc(CN4CC(C(=O)O)C4)c4ccccc34)no2)cc1C#N.Cl [Compound A1] ?
Result: 2.16 µg/mL

---

Protocol text: Preliminary evaluation of pharmacokinetics in Beagle dogs
Assay type: in vivo
Experimental parameters: beagle, dog, plasma, iv, 0.5 mg/kg, Beagle dogs; intravenous 0.5 mg/kg; individual animals 1-3
Value kind: clearance (mL/min/kg)
Please reply with the bare figure in mL/min/kg and do not write the unit itself.

Task: Which clearance value belongs to CC(C)Oc1ccc(-c2nc(-c3ccc(CN4CC(C(=O)O)C4)c4ccccc34)no2)cc1C#N.Cl ?
Result: 22

---

Experimental system: S1PR1 (Homo sapiens)
Construct: host or cells: CHO-K1 co-expressing Ga15
Protocol text: Agonistic activity test on S1P receptors, FLIPR, CHO-K1/Ga15/EDG1 cells
Format: cell-based
Experimental parameters: subtype selectivity study; read-out: S1P1 EC50
Value kind: pEC50
Please treat pEC50 as minus the base-10 logarithm of the molar concentration.

Task: Which pEC50 value belongs to CCc1cc(/C(C)=N/OCc2ccc(C3CCCCC3)c(C(F)(F)F)c2)ccc1CN1CC(C(=O)O)C1 [Siponmod, reference compound] ?
Result: 6.26

---

Protocol text: Preliminary evaluation of pharmacokinetics in Beagle dogs
Type: in vivo
Experimental parameters: beagle, dog, plasma, iv, 0.5 mg/kg, Beagle dogs; intravenous 0.5 mg/kg; mean; read-out: MRT0-∞
Value kind: MRT inf (min)
Please reply with the bare figure in min and do not write the unit itself.

Task: Which MRT inf value belongs to CC(C)Oc1ccc(-c2nc(-c3ccc(CN4CC(C(=O)O)C4)c4ccccc34)no2)cc1C#N.Cl [Compound A1] ?
Result: 55.1

---

Protocol text: Preliminary assessment of in vivo pharmacokinetics in rats
Experimental parameters: rat, plasma, iv, 2 mg/kg, rats; intravenous 2 mg/kg; individual animals 1-3
Value kind: AUC(0-inf) (ng·h/mL)
Please reply with the bare figure in ng·h/mL and do not write the unit itself.

Task: Which AUC(0-inf) value belongs to CC(C)Oc1ccc(-c2nc(-c3ccc(CN4CC(C(=O)O)C4)c4ccccc34)no2)cc1C#N.Cl ?
Result: 3570

---

Protocol text: Preliminary assessment of pharmacokinetics in mice
Format: in vivo, CD-1 mice
Experimental parameters: male, CD-1, mouse, plasma, ip, 20 mg/kg, intraperitoneal injection 20 mg/kg; 24.0 h; mean; read-out: Concentration of A1 Drug in Plasma of Mice
Value kind: concentration at 24 h (ng/mL)
Please reply with the bare figure in ng/mL and do not write the unit itself.

Task: Which concentration at 24 h value belongs to CC(C)Oc1ccc(-c2nc(-c3ccc(CN4CC(C(=O)O)C4)c4ccccc34)no2)cc1C#N.Cl [Compound A1] ?
Result: 49.5

---

Protocol text: Preliminary assessment of in vivo pharmacokinetics in rats
Experimental parameters: rat, plasma, iv, 2 mg/kg, rats; intravenous 2 mg/kg; mean; read-out: AUC0-t
Value kind: AUC0-t (ng·h/mL)
Please reply with the bare figure in ng·h/mL and do not write the unit itself.

Task: Which AUC0-t value belongs to CC(C)Oc1ccc(-c2nc(-c3ccc(CN4CC(C(=O)O)C4)c4ccccc34)no2)cc1C#N.Cl [Compound A1] ?
Result: 3850

---

Protocol text: Preliminary evaluation of pharmacokinetics in Beagle dogs
Format: in vivo
Experimental parameters: beagle, dog, plasma, iv, 0.5 mg/kg, Beagle dogs; intravenous 0.5 mg/kg; individual animals 1-3; read-out: MRT0-∞
Value kind: MRT inf (min)
Please reply with the bare figure in min and do not write the unit itself.

Task: Which MRT inf value belongs to CC(C)Oc1ccc(-c2nc(-c3ccc(CN4CC(C(=O)O)C4)c4ccccc34)no2)cc1C#N.Cl ?
Result: 54.6

---

Protocol text: Preliminary evaluation of pharmacokinetics in Beagle dogs
Format: in vivo
Experimental parameters: beagle, dog, plasma, iv, 0.5 mg/kg, intravenous 0.5 mg/kg; 0.25 h; mean; read-out: Plasma drug concentration in Beagle dogs
Value kind: concentration at 0.25 h (ng/mL)
Please reply with the bare figure in ng/mL and do not write the unit itself.

Task: Which concentration at 0.25 h value belongs to CC(C)Oc1ccc(-c2nc(-c3ccc(CN4CC(C(=O)O)C4)c4ccccc34)no2)cc1C#N.Cl [Compound A1] ?
Result: 265

---

Protocol text: Preliminary assessment of in vivo pharmacokinetics in rats
Experimental parameters: rat, plasma, iv, 2 mg/kg, intravenous 2 mg/kg; 1 h; mean; read-out: Plasma drug concentrations in rats
Value kind: concentration at 1 h
Write the numeric value and follow it with the unit.

Task: Which concentration at 1 h value belongs to CC(C)Oc1ccc(-c2nc(-c3ccc(CN4CC(C(=O)O)C4)c4ccccc34)no2)cc1C#N.Cl [Compound A1] ?
Result: 987 ng/mL

---

The following compounds are listed with their measured EC50 values.
Experimental system: S1P4 (Homo sapiens)
Sequence (O95977 whole entry, species assumed): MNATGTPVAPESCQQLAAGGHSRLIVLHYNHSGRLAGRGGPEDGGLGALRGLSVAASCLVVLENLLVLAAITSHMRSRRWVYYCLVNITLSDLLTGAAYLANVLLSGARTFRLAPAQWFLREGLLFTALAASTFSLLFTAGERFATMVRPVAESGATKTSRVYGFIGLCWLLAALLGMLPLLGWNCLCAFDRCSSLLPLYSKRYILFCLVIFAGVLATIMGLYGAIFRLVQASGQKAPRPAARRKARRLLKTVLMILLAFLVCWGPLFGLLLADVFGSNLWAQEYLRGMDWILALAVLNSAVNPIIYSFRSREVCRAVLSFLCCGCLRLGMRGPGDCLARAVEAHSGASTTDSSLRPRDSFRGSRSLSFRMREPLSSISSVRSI
Protocol text: Subtype selectivity study, method of Experimental Example 1

For orientation, consider the following solved cases.
1. CC(C)Oc1ccc(-c2nc(-c3cccc4c3CC[C@@H]4NCCO)no2)cc1C#N [Ozanimod] : > 10 µM
2. CCc1cc(/C(C)=N/OCc2ccc(C3CCCCC3)c(C(F)(F)F)c2)ccc1CN1CC(C(=O)O)C1 [Siponmod, reference compound] : 0.75 µM

Moving on to the next compound.
Task: Which EC50 value belongs to CC(C)Oc1ccc(-c2nc(-c3ccc(CN4CC(C(=O)O)C4)c4ccccc34)no2)cc1C#N.Cl [Compound A1] ?
Result: > 10 µM

---

Protocol text: Preliminary evaluation of pharmacokinetics in Beagle dogs
Assay type: in vivo
Experimental parameters: dog, plasma, oral; Beagle dogs; 3 mg/kg by gavage vs 0.5 mg/kg intravenous; read-out: absolute bioavailability
Value kind: bioavailability (%)
Please reply with the bare figure in % and do not write the unit itself.

Task: Which bioavailability value belongs to CC(C)Oc1ccc(-c2nc(-c3ccc(CN4CC(C(=O)O)C4)c4ccccc34)no2)cc1C#N.Cl [Compound A1] ?
Result: 54
